target: BACE-1 (Homo sapiens)
Construct: purchased Sigma-Aldrich
Sequence (P56817 46-501): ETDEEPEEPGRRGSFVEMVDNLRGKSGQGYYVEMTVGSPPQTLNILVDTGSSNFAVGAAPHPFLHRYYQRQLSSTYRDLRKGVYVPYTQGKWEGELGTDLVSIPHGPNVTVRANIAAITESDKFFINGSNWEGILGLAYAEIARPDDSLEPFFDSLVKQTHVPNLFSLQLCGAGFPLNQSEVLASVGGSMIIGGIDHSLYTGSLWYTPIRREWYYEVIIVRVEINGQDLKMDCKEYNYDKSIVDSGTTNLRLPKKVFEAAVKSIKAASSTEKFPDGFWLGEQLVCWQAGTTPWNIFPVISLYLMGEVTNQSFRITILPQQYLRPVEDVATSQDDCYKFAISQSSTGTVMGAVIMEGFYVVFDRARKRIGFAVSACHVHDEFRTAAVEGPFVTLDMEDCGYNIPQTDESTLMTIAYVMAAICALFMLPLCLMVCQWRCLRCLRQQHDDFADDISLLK
testName: BACE-1 inhibition (β-secretase activity detection kit)
Type: biochemical
studyConditions: 10 µM compound; read-out: Residual activity at 10 µM (%) BACE-1
propertyLabel: remaining activity at 10 µM (%)
Write the answer as a number in %, unit excluded.

Worked cases, remaining activity at 10 µM given:
In [3]: df
Out[3]:
                                   compound                 target                propertylabel  reportedmeasurement
0  COc1ccc(C(=O)/C=C/c2ccc(Br)cc2)c(OC)c1 [DM7]  BACE-1 (Homo sapiens)  remaining activity at 10 µM                 97.3
1  COc1ccc(C(=O)/C=C/c2cccc(Br)c2)c(OC)c1 [DM6]  BACE-1 (Homo sapiens)  remaining activity at 10 µM                 88.5
2  COc1ccc(C(=O)/C=C/c2ccccc2F)c(OC)c1 [DM8]  BACE-1 (Homo sapiens)  remaining activity at 10 µM                   91
3  COc1ccc(C(=O)/C=C/c2ccccc2Cl)c(OC)c1 [DM2]  BACE-1 (Homo sapiens)  remaining activity at 10 µM                  100
4  COc1ccc(C(=O)/C=C/c2ccc(F)cc2)cc1OC [DM20]  BACE-1 (Homo sapiens)  remaining activity at 10 µM                 99.9
5  COc1ccc(C(=O)/C=C/c2cccc(Cl)c2)c(OC)c1 [DM3]  BACE-1 (Homo sapiens)  remaining activity at 10 µM                 99.7
6  COc1ccc(C(=O)/C=C/c2cccc(F)c2)cc1OC [DM19]  BACE-1 (Homo sapiens)  remaining activity at 10 µM                 99.9
7  COc1ccc(C(=O)/C=C/c2ccccc2Br)c(OC)c1 [DM5]  BACE-1 (Homo sapiens)  remaining activity at 10 µM                 87.8
8  COc1ccc(C(=O)/C=C/c2ccccc2Br)cc1OC [DM15]  BACE-1 (Homo sapiens)  remaining activity at 10 µM                 99.5
9  COc1ccc(C(=O)/C=C/c2cccc(F)c2)c(OC)c1 [DM9]  BACE-1 (Homo sapiens)  remaining activity at 10 µM                 88.2

Entry COc1ccc(C(=O)/C=C/c2ccccc2)cc1OC [DM11] under BACE-1 (Homo sapiens) had remaining activity at 10 µM of 97.5

Test item COc1ccc(C(=O)/C=C/c2ccc(F)cc2)c(OC)c1 [DM10] ; BACE-1 (Homo sapiens); reported remaining activity at 10 µM was 87.1

====

remaining activity at 10 µM listing for selected compounds.
target: MAO-A (Homo sapiens, UniProt P21397)
Construct: purchased Sigma-Aldrich
Sequence (P21397 whole entry): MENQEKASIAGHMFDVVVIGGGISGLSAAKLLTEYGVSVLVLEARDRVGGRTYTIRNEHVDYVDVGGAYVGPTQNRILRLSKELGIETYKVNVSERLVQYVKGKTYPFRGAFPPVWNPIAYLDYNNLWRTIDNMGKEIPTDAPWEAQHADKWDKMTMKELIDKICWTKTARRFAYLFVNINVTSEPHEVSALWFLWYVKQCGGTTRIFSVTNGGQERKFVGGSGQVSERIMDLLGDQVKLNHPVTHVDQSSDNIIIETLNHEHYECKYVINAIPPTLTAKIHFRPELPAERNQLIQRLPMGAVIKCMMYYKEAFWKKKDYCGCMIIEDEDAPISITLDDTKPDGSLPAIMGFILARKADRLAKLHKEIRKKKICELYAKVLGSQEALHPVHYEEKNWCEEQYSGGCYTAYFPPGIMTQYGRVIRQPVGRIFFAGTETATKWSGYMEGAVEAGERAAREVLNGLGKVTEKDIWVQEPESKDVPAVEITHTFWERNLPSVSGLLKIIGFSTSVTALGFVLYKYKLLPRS
testName: MAO-A inhibition assay (recombinant enzyme, kynuramine substrate)
Type: biochemical
studyConditions: 10 µM compound; recombinant MAO-A, kynuramine 0.06 mM; read-out: Residual Activity at 10 µM (%) MAO-A
Procedure: Recombinant MAO-A and MAO-B were used to test the MAO inhibitory activity using the substrates kynuramine and benzylamine (0.06 mM and 0.3 mM, respectively). […] Chemicals were from Sigma-Aldrich. MAO-A At 10 µM, compounds’ inhibitory effects on MAOs were initially recorded. […] The SI values of MAO-B were calculated by dividing the IC50 values for MAO-A and those for MAO-B. The MAO-B was used to study the kinetics of substances DM2 or DM18 at five different substrate concentrations. […]
Numbers only; they are read as %.

Below, each entry is followed by its recorded remaining activity at 10 µM result.
>>> print(df.to_string())
                                 compound  reportedmeasurement
0  COc1ccc(C(=O)/C=C/c2cccc(Br)c2)c(OC)c1                 62.7
1       COc1ccc(C(=O)/C=C/c2ccccc2F)cc1OC                  100
2      COc1ccc(C(=O)/C=C/c2ccccc2Br)cc1OC                 77.5
3  COc1ccc(C(=O)/C=C/c2ccc(Br)cc2)c(OC)c1                 40.3
4     COc1ccc(C(=O)/C=C/c2cccc(F)c2)cc1OC                 93.7

Moving on to the next compound.
Record COc1ccc(C(=O)/C=C/c2ccc(F)cc2)c(OC)c1 ; system MAO-A (Homo sapiens, UniProt P21397); remaining activity at 10 µM = 53.9

These entries and their values trace back to paper PMC9503132.
